# assaySummary: Rat pharmacokinetic study
# statedConditions: male, Wistar-Hannover, rat, plasma, iv, […], Vdss, PF-07304814 prodrug dosed […] intravenous, individual rats
outcomeMeasure: Vd (L/kg)
Give the number; L/kg is assumed, so skip it.

stdin: Can you look up the measured Vd of COc1cccc2[nH]c(C(=O)N[C@@H](CC(C)C)C(=O)N[C@@H](C[C@@H]3CCNC3=O)C(=O)COP(=O)(O)O)cc12 for me?
stdout: 0.567

----------
# assaySummary: Liver microsome binding by equilibrium dialysis
# statedConditions: human, human liver microsomes, fu, microsomal protein 0.806mg/ml, individual replicates n=1-4
outcomeMeasure: fraction unbound at 6 h
Give the figure only, with no unit attached.

stdin: Can you look up the measured fraction unbound at 6 h of COc1cccc2[nH]c(C(=O)N[C@@H](CC(C)C)C(=O)N[C@@H](C[C@@H]3CCNC3=O)C(=O)CO)cc12 for me?
stdout: 0.7

----------
# assaySummary: Monkey pharmacokinetic study
# statedConditions: male, cynomolgus monkey, plasma, iv, 1 mg/kg, Vdss, Monkey, Vdss input
outcomeMeasure: Vd (L/kg)
Give the number; L/kg is assumed, so skip it.

stdin: Can you look up the measured Vd of COc1cccc2[nH]c(C(=O)N[C@@H](CC(C)C)C(=O)N[C@@H](C[C@@H]3CCNC3=O)C(=O)CO)cc12 for me?
stdout: 1.4

----------
# systemName: UniProt:P10635
# Sequence (P10635 whole entry): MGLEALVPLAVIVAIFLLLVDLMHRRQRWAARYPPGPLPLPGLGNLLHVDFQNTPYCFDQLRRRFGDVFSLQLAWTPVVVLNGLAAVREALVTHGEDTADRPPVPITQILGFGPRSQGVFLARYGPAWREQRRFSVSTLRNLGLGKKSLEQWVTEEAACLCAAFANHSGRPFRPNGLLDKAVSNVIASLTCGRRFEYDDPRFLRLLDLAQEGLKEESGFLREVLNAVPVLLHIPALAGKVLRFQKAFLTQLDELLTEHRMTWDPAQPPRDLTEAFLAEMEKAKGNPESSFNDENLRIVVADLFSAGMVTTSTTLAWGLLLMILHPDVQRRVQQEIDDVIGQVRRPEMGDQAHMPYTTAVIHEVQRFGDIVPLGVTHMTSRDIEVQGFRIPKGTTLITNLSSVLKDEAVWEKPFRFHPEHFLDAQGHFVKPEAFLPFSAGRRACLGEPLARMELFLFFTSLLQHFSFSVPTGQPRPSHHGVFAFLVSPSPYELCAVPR
# assaySummary: Reversible CYP inhibition in human liver microsomes
# statedConditions: human, microsomes, pH 7.4
outcomeMeasure: IC50

stdin: What is its IC50 for UniProt:P10635? Entry: COc1cccc2[nH]c(C(=O)N[C@@H](CC(C)C)C(=O)N[C@@H](C[C@@H]3CCNC3=O)C(=O)CO)cc12
stdout: > 200 µM

----------
# System: CYP3A4/5
# assaySummary: in vitro
# statedConditions: human, microsomes, pH 7.4, Percent of Control Activity, CYP 3A4/5 (mdz), 39.8 µM, Zero-Minute Preincubation
outcomeMeasure: activity at 39.8 µM (%)
Give the number; % is assumed, so skip it.

stdin: What is its activity at 39.8 µM for CYP3A4/5? Entry: COc1cccc2[nH]c(C(=O)N[C@@H](CC(C)C)C(=O)N[C@@H](C[C@@H]3CCNC3=O)C(=O)COP(=O)(O)O)cc12
stdout: 100

----------
# assaySummary: Plasma protein binding by equilibrium dialysis
# statedConditions: both, Sprague Dawley, rat, plasma, pH 7.4, Individual fraction unbound, rat plasma, Sprague Dawley, male and female, 3.44 uM, Day 1
outcomeMeasure: fraction unbound at 6 h, 3.44 uM

stdin: Can you look up the measured fraction unbound at 6 h, 3.44 uM of COc1cccc2[nH]c(C(=O)N[C@@H](CC(C)C)C(=O)N[C@@H](C[C@@H]3CCNC3=O)C(=O)COP(=O)(O)O)cc12 for me?
stdout: 0.404

----------
# System: CYP3A4/5
# assaySummary: Reversible CYP inhibition in human liver microsomes
# statedConditions: human, human liver microsomes, pH 7.4, probe midazolam (mdz), Percent of Control Activity, CYP 3A4/5 (mdz), 93.5 µM, Zero-Minute Preincubation
outcomeMeasure: activity at 93.5 µM (%)
Give the number; % is assumed, so skip it.

stdin: Can you look up the measured activity at 93.5 µM of COc1cccc2[nH]c(C(=O)N[C@@H](CC(C)C)C(=O)N[C@@H](C[C@@H]3CCNC3=O)C(=O)CO)cc12 for me?
stdout: 113

meta.source: paper PMC8523698
